The values you see were collected from patent US7713971B2.

Provide the reported EC50 of each item.
Molecular target: human PPARγ (Homo sapiens, UniProt P37231)
Sequence (P37231 238-503 limits assumed): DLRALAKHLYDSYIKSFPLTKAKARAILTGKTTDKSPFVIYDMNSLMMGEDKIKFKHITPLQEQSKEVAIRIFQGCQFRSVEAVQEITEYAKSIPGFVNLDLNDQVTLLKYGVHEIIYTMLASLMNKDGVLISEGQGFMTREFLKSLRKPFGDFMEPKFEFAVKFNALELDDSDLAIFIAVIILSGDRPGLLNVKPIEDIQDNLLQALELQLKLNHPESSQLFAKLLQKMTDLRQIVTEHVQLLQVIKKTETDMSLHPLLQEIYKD
Test: Reporter gene transactivation, hPPAR-GAL4 gamma
Conditions: transfected Cos-7 cells, Gal-4 luciferase reporter, 24 hours treatment

Request: What does the data say about its EC50? Entry: CCOC(=O)C(C)(C)Oc1cccc(CCCNc2nn(CCCC(F)(F)F)c(=O)n(CCCC(F)(F)F)c2=O)c1 [Example 66]
Result: > 10 µM

Request: Now the compound CCCCCCCn1nc(OCCCCCc2cccc(OC(C)(C)C(=O)OCC)c2)c(=O)n(CCCC)c1=O [Example 15]
Result: 0.1 to 0.3 µM

Request: Now the compound Cn1nc(NCCCCc2cccc(SC(C)(C)C(=O)O)c2)c(=O)n(CCCC(F)(F)F)c1=O [Example 96]
Result: ~10 µM

Request: Now the compound CCCCn1c(=O)c(OCCCCCc2cccc(OC(C)(C)C(=O)O)c2)nn(C)c1=O [Example 12]
Result: 1 to 3 µM

Request: Now the compound CCCCCCCn1c(=O)c(NCCCCc2cccc(OC(C)(C)C(=O)OCC)c2)nn(C/C=C/C(=O)OCC)c1=O [Example 87]
Result: 0.1 to 0.3 µM

Request: Now the compound CCCCCCCn1c(=O)c(OCCCCCc2cccc(OC(C)(C)C(=O)OCC)c2)nn(Cc2ccccc2)c1=O [Example 19]
Result: 3 to 10 µM

Request: Now the compound CCOC(=O)C(C)(C)Oc1cccc(CCCCCOc2nn(CCCC(F)(F)F)c(=O)n(C)c2=O)c1 [Example 9]
Result: ~10 µM

Request: Now the compound CCCCCCCn1c(=O)c(NCCCOc2ccc(OC(C)(C)C(=O)OCC)cc2)nn(CCCC(F)(F)F)c1=O [Example 48]
Result: 0.3 to 1 µM

Request: Now the compound CCOC(=O)C(C)(C)Oc1ccc(OCCNc2nn(CCCC(F)(F)F)c(=O)n(CCCC(F)(F)F)c2=O)cc1 [Example 41]
Result: ~10 µM

Request: Now the compound CCCCCCCn1c(=O)c(NCCCCc2cccc(OC(C)(C)C(=O)OCC)c2)nn(CCCC(F)(F)F)c1=O [Example 85]
Result: 1 to 3 µM

Request: Now the compound CCCCCCCN(CCc1ccc(OC(C)(C)C(=O)OCC)cc1)c1nn(C)c(=O)n(C)c1=O [Example 112]
Result: ~10 µM

Request: Now the compound CCOC(=O)C(C)(C)Sc1cccc(CCCCNc2nn(C)c(=O)n(CCCC(F)(F)F)c2=O)c1 [Example 95]
Result: > 10 µM

Request: Now the compound CCCCCCCn1nc(NCCCc2cccc(OC(C)(C)C(=O)OCC)c2)c(=O)n(CCCCCCC)c1=O [Example 69]
Result: ~10 µM

Request: Now the compound CCCCCCCn1nc(OCCc2cccc(OC(C)(C)C(=O)OCC)c2)c(=O)n(C)c1=O [Example 2]
Result: ~10 µM

Request: Now the compound Cn1c(=O)c(NCCc2ccc(SC(C)(C)C(=O)O)cc2)nn(CCCC(F)(F)F)c1=O [Example 118]
Result: ~10 µM
